- Test System: L-lactate dehydrogenase (Plasmodium falciparum (isolate CDC / Honduras))
- Assay Explanation: PfLDH activity inhibition – cell lysate, 3D7 strain, counter-screen for P. falciparum growth inhibition project (AID 2304);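 note: 0% = vehicle and 100% = reference inhibitor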
- Assay Conditions: P. falciparum 3D7 crude extract, LDH APAD/NBT absorbance; at 2 µM; stronger effect = higher value
Active and inactive are the calls of the source. The rule behind the calls is not given here.
Parameter Measured: inhibition

For orientation, consider the following solved cases.
[[record]]
compound = "Cc1ccc(C(=O)Nc2ccc(F)cc2)cc1-c1nc(NC2CC(C)(C)NC(C)(C)C2)nc2c1ccc(=O)n2-c1c(F)cccc1F"
test_system = "L-lactate dehydrogenase (Plasmodium falciparum (isolate CDC / Honduras))"
recorded_measurement = "-2% (inactive)"

[[record]]
compound = "CC(C)c1ccc(NC(=O)c2ccc(C(=O)NC3CCN(Cc4ccsc4)C3)cc2)cc1 (configuration not stated)"
test_system = "L-lactate dehydrogenase (Plasmodium falciparum (isolate CDC / Honduras))"
recorded_measurement = "-2% (inactive)"

[[record]]
compound = "Cc1noc(=O)c2ccc(NC(=O)C(O)(CSc3ccccc3)CC(C)C)cc12 (configuration not stated)"
test_system = "L-lactate dehydrogenase (Plasmodium falciparum (isolate CDC / Honduras))"
recorded_measurement = "0% (inactive)"

[[record]]
compound = "CN(C)CCN(C)Cc1ccc(-c2cccc(NC(=O)c3cccc(C#N)c3)c2)cc1"
test_system = "L-lactate dehydrogenase (Plasmodium falciparum (isolate CDC / Honduras))"
recorded_measurement = "-4% (inactive)"

[[record]]
compound = "O=S(=O)(c1ccc(OCc2ccc(Cl)cc2)cc1)c1cc2c(cc1O)CCN(C1CCC1)CC2"
test_system = "L-lactate dehydrogenase (Plasmodium falciparum (isolate CDC / Honduras))"
recorded_measurement = "3% (inactive)"

[[record]]
compound = "COc1ccc(NC(=O)c2ccc(NC(=O)c3ccc(Cl)cc3)cc2)cc1N1CCN(C)CC1"
test_system = "L-lactate dehydrogenase (Plasmodium falciparum (isolate CDC / Honduras))"
recorded_measurement = "-8% (inactive)"

[[record]]
compound = "Fc1ccc(C(OCC2CCCN(Cc3cccc4cccnc34)C2)c2ccc(F)cc2)cc1 (configuration not stated)"
test_system = "L-lactate dehydrogenase (Plasmodium falciparum (isolate CDC / Honduras))"
recorded_measurement = "3% (inactive)"

[[record]]
compound = "CN1CCC(C(=O)Nc2cccc(-c3ccc(-c4nc5ccccc5[nH]4)cc3)c2)CC1"
test_system = "L-lactate dehydrogenase (Plasmodium falciparum (isolate CDC / Honduras))"
recorded_measurement = "5% (inactive)"

[[record]]
compound = "CC(C)CNCc1ccc(-c2cccc(CN(CCCN3CCN(C)CC3)C(=O)/C=C/c3ccccc3)c2)cc1"
test_system = "L-lactate dehydrogenase (Plasmodium falciparum (isolate CDC / Honduras))"
recorded_measurement = "0% (inactive)"

[[record]]
compound = "O=S(=O)(c1ccccc1Cl)N1CCCCC(c2ccc(C(F)(F)F)cc2)=N1"
test_system = "L-lactate dehydrogenase (Plasmodium falciparum (isolate CDC / Honduras))"
recorded_measurement = "4% (inactive)"


Task: Observed inhibition on L-lactate dehydrogenase (Plasmodium falciparum (isolate CDC / Honduras)) for `Cc1c(Cl)cccc1S(=O)(=O)Nc1ccc(CCN2CCC(N)CC2)cc1` , please.
Output: 0% (inactive)

Task: Same for `O=S(=O)(Nc1ccc(-c2ccc(CN3CCCC3)cc2)cc1)c1cccc2cccnc12`
Output: -8% (inactive)

Task: Now try `CN1CCN(c2ccc3nc(-c4ccc(Cc5cc(Cl)ccc5OCc5ccccc5)o4)[nH]c3c2)CC1` .
Output: 2% (inactive)

Task: Now try CC(C)c1ccc(OCC(O)CN(CCN2CCOCC2)C(=O)Nc2ccc(Br)cc2)cc1 (configuration not stated) .
Output: -2% (inactive)

Data credit: PubChem BioAssay
